target: CDKL3 (human) (UniProt Q8IVW4); experiment: KINOMEscan competition binding; settings: compound 10.0 µM
Sequence (Q8IVW4 whole entry, looked up): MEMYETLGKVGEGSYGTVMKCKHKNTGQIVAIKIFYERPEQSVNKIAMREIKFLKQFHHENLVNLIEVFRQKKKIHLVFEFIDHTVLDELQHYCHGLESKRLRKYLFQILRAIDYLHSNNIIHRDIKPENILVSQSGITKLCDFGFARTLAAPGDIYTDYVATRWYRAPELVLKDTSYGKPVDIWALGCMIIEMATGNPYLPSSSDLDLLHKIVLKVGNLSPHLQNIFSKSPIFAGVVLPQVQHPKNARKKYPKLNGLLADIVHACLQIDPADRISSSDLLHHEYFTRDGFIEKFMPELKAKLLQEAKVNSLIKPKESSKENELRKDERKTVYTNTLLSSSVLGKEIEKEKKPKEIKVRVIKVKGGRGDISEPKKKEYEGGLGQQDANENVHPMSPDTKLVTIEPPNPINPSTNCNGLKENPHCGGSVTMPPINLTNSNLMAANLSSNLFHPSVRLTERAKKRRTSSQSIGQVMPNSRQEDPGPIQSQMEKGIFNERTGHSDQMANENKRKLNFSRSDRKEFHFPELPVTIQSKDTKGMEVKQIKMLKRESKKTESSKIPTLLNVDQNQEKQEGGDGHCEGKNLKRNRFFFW
Below is a list of entries, each paired with its recorded kinase still bound, per cent of control value.
assayReadout: kinase still bound, per cent of control (%)

[[record]]
samplesmiles = "CCC(=O)N1CCN(c2ccc(-n3c(=O)ccc4cnc5ccc(-c6cnc7ccccc7c6)cc5c43)cc2C(F)(F)F)CC1"
numericreadout = 92

[[record]]
samplesmiles = "COc1cc(N2CCN(C)CC2)ccc1Nc1nc(N)c(C(=O)c2c(Cl)cccc2Cl)s1"
numericreadout = 86

[[record]]
samplesmiles = "OCCCNc1cc(-c2ccnc(Nc3cccc(Cl)c3)n2)ccn1"
numericreadout = 5.4

[[record]]
samplesmiles = "CN(C)C/C=C/C(=O)Nc1cccc(Nc2ncc3c(n2)N(C)c2ccccc2C(=O)N3C)c1"
numericreadout = 100

[[record]]
samplesmiles = "Cc1ccc(NC(=O)c2cccc(C(C)(C)C#N)c2)cc1Nc1ccc2ncn(C)c(=O)c2c1"
numericreadout = 100

[[record]]
samplesmiles = "Cn1c(=O)n(-c2ccc(C(C)(C)C#N)cc2)c2c3cc(-c4cnc5ccccc5c4)ccc3ncc21"
numericreadout = 100

[[record]]
samplesmiles = "O=C(NOC[C@H](O)CO)c1ccc(F)c(F)c1Nc1ccc(I)cc1F"
numericreadout = 98

[[record]]
samplesmiles = "CCOc1cc2ncc(C#N)c(Nc3ccc(OCc4ccccn4)c(Cl)c3)c2cc1NC(=O)/C=C/CN(C)C"
numericreadout = 100

[[record]]
samplesmiles = "O=C(NC1CC1)c1cccc(-c2ccc3c(NC(=O)C4CC4)n[nH]c3c2)c1"
numericreadout = 55

[[record]]
samplesmiles = "Cc1cc([C@@H](C)Nc2ccccc2C(=O)O)c2nc(N3CCOCC3)cc(=O)n2c1"
numericreadout = 90

[[record]]
samplesmiles = "Cc1ccc2nc(NCCN)c3ncc(C)n3c2c1"
numericreadout = 98

[[record]]
samplesmiles = "O=C(O)c1ccc(Nc2ncc3c(n2)-c2ccc(Cl)cc2C(c2c(F)cccc2F)=NC3)cc1"
numericreadout = 100

[[record]]
samplesmiles = "C=CC(=O)Nc1cc(NC(=O)c2ccc(C)c(NC(=O)c3ccno3)c2)cc(C(F)(F)F)c1"
numericreadout = 90

[[record]]
samplesmiles = "Nc1ccc(-c2ccc3ncc4ccc(=O)n(-c5cccc(C(F)(F)F)c5)c4c3c2)cn1"
numericreadout = 100

